These records show Ki for Cathepsin B (Capra hircus, UniProt H9B8T9).
Output spec: scalar in nM, unitless text.

Examples with answers:
O=CN1N=C(c2ccccc2)CC1c1cccc([N+](=O)[O-])c1 (configuration not stated)
1.1
O=C(c1ccccc1)N1N=C(c2ccccc2)CC1c1cccc([N+](=O)[O-])c1 (configuration not stated)
195
O=C(c1ccccc1)N1N=C(c2ccccc2)CC1c1ccccc1[N+](=O)[O-] (configuration not stated)
572
O=C(c1ccccc1)N1N=C(c2ccccc2)CC1c1ccccc1Cl (configuration not stated)
775

Fill in the blank: the reported Ki of O=C(c1ccccc1)N1N=C(c2ccccc2)CC1c1ccc(Cl)cc1 (configuration not stated) is ____.
925

One more molecule: COc1ccc(C2CC(c3ccccc3)=NN2C=O)cc1 (configuration not stated)
44.8

Item: O=CN1N=C(c2ccccc2)CC1c1ccccc1Cl (configuration not stated)
18
